Target: Env of HIV-1 strain X1254_c3 (HIV-1)
Assay: cell-based or functional assay
Label t when neutralization IC50 >= 9 µg/mL; otherwise f.

Given the entry γ22κ5 (antibody, V domains shown) VH: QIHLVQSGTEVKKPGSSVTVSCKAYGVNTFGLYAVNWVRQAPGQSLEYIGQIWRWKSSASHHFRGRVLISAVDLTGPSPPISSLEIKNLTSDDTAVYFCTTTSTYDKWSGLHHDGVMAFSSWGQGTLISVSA VL: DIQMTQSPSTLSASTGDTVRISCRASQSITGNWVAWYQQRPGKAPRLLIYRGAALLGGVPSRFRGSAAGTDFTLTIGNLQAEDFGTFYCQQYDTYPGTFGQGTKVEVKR , answer whether its neutralization IC50 meets or surpasses 9 µg/mL.
f

Does the binder γ59κ5 (antibody, V domains shown) VH: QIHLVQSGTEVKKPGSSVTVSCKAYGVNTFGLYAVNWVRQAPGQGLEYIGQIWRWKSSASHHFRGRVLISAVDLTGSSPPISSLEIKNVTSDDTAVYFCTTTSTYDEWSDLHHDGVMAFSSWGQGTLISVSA VL: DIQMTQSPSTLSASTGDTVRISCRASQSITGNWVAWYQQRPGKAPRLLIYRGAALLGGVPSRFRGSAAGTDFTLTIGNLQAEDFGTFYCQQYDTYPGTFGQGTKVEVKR have recorded neutralization IC50 that is 9 µg/mL or more?
t
